Molecular target: Praluent (IgG1 monoclonal antibody)
Experiment: BLI, biotinylated ligand on sensor; 'Binding affinity (nM)'
pKd: −log10 of the molar value.
Recorded endpoint: pKd

Some entries whose results are on file:
INSERT INTO assay_data (binder, result) VALUES
  ('affinity ligand SEQ ID NO: 165 (designed binder, biotinylated (AviTag system)) MDEAAHWEVQGAAYAARGDYDRAIEYYERALELDPNNAWAWEHLGWAYAARGDFDRAIEYYERALELDPDDAHAWFRLGFAYAARGDYDRAIEYYERALELDPEDELARAELESARRARQGQAGQGWAEFRQRLAAIRTRLEALGGSEAELAAFEREIAAFESELQAYAGAGNPEVEALRREAAAIRDELQAYRHNHHHHHHC', '> 9.00'),
  ('affinity ligand SEQ ID NO: 164 (designed binder, biotinylated (AviTag system)) MGDEAERWYDLGAAYAARGDYDRAIEYYQRALELDPNDAWAWWELGVAYAARGDYDRAIEYYQRALELDLNNAVAWARLGIAYAARGDYDRAIEYYQRALELDPNNEVARDALEYARRARRC', '> 9.00');

Recorded pKd for affinity ligand SEQ ID NO: 157 (designed binder, biotinylated (AviTag system)) MGLAEAAAREAAARAADEAERWYDLGAAYAARGDYDRAIEYYQRALEHDPNDAWAWWELGVAYAARGDYDRAIEYYQRALELDTNNAVAWARLGIAYAARGDYDRAIEYYQRALELDPNNEVARGALEYARRARRHHHHHH , please? > 9.00
